meta.source: patent US5854388A

target.system: AT4 receptor (Bos taurus)
Sequence (F1N1Q8 1-1022): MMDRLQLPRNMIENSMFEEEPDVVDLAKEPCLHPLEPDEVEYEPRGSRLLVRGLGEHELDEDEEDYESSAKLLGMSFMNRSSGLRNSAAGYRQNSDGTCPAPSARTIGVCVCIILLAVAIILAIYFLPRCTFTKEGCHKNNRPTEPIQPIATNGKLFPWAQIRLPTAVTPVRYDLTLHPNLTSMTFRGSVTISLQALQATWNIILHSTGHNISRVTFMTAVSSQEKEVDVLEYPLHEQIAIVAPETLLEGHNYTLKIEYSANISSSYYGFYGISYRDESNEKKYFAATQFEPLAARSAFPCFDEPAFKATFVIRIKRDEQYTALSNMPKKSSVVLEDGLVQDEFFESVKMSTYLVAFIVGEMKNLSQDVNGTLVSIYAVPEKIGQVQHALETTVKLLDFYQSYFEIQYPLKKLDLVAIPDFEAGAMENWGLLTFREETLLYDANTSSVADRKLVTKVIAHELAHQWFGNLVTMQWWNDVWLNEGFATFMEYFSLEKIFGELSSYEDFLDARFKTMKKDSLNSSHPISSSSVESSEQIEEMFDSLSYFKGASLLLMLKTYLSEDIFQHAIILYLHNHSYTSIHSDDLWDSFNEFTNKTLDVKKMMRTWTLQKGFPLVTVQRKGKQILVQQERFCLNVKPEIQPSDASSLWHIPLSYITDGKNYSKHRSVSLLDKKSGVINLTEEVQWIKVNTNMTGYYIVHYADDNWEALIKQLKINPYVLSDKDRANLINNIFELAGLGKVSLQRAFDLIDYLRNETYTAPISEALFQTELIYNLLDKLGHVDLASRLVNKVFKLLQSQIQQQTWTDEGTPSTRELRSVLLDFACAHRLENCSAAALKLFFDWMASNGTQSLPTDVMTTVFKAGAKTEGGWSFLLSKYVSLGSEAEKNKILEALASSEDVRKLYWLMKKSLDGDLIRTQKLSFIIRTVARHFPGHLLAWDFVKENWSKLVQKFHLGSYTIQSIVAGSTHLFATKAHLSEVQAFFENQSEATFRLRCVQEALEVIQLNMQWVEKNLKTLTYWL
method.description: 125I-AIV binding and competition, solubilized bovine adrenal cortical receptor
conditions.used: read-out: Ki
experimental.endpoint: Ki (nM)
Give bare numbers, in nM.

Input: What Ki value was documented for this substance, ^+ H3 N-Val(CH2 NH)Tyr-Val(CH2 NH)-His-Pro-Phe-COO^- (H-VYVHPF-OH; also: reduced CH2-NH bonds: Val1-Tyr2, Val3-His4) [Val1 Val3 AIV] ?
Output: 1.29

====

I'd appreciate it if you could supply Ki values for the items below.
target.system: AT4 receptor (Cavia porcellus, UniProt H0VNM7)
Sequence (H0VNM7 1-1025): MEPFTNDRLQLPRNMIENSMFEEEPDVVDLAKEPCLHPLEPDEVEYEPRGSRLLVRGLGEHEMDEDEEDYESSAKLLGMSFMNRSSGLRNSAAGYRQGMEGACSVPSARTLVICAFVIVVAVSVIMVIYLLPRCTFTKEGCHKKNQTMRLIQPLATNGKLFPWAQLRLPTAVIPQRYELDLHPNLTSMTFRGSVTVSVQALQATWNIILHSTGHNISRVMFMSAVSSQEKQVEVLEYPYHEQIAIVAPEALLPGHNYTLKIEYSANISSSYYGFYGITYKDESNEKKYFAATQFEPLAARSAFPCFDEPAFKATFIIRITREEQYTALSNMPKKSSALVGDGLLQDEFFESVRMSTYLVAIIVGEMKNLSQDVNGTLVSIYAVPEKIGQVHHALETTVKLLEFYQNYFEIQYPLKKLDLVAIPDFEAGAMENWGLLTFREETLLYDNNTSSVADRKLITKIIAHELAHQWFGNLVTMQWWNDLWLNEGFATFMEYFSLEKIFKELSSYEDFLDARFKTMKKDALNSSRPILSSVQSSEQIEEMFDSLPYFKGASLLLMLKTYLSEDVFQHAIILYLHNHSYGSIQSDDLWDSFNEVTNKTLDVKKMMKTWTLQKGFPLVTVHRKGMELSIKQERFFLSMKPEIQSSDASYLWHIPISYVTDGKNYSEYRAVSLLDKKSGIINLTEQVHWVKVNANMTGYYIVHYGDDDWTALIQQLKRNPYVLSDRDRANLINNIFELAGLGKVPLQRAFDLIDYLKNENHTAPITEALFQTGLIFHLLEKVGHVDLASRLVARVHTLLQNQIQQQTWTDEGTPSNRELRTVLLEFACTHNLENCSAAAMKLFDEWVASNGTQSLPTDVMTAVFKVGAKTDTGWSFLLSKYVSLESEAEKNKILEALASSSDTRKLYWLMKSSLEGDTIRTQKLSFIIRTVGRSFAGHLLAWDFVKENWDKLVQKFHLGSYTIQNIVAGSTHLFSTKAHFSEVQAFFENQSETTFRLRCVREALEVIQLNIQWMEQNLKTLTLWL
method.description: 125I-AIV binding and competition, guinea pig hippocampus membranes
conditions.used: competition of 0.6 nM 125I-AIV

- substance: "SRVYIHPI [Sar1, Ile8 -AII]"
  readout.value: "> 1000 nM"

Input: What Ki value was documented for this substance, Asp1 Arg2 Val3 Tyr4 Ile5 His6 Pro7 Phe8 (DRVYIHPF) [AII] ?
Output: > 1000 nM

====

target.system: AT4 receptor (Bos taurus, UniProt F1N1Q8)
Sequence (F1N1Q8 1-1022): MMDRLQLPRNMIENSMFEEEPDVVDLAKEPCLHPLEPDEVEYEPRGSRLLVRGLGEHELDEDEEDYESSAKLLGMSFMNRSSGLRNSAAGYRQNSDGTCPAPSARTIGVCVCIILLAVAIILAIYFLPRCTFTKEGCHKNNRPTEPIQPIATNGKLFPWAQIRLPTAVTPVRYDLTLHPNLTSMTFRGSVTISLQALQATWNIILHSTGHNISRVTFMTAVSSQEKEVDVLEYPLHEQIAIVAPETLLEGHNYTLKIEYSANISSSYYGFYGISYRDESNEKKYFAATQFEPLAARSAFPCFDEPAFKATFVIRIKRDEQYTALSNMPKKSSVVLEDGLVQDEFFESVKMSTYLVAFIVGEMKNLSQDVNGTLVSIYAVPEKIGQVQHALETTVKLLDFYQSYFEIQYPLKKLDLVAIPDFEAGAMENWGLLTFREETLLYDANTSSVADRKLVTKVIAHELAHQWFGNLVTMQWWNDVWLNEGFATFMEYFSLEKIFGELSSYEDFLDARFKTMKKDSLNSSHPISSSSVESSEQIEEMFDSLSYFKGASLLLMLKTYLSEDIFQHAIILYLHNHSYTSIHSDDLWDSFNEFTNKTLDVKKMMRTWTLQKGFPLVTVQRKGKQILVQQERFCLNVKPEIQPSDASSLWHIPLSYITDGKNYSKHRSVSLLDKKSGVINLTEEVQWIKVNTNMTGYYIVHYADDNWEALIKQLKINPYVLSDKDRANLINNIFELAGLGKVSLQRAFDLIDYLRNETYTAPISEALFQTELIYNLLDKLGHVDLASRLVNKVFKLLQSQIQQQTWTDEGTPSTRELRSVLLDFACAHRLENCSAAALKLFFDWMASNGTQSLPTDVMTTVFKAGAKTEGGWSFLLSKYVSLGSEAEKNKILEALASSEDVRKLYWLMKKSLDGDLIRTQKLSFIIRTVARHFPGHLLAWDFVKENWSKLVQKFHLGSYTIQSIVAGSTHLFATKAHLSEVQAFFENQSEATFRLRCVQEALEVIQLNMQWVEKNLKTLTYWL
method.description: 125I-AIV binding and competition, solubilized bovine adrenal cortical receptor
pKi: −log10 of the molar value. Residues, ends and D or L forms follow the SMILES beside them.
experimental.endpoint: pKi

- compound: "CC[C@H](C)[C@H](NC(=O)[C@@H](N)Cc1ccc(O)cc1)C(=O)N[C@@H](Cc1cnc[nH]1)C(=O)N1CCC[C@H]1C(=O)N[C@@H](Cc1ccccc1)C(=O)O [AII(4-8), YIHPF] (H-YIHPF-OH)"
  pKi: "< 6.00"

The record that follows has no pKi shown yet.
Input: What pKi value was documented for this compound, CCCCc1nc(Cl)c(CO)n1Cc1ccc(-c2ccccc2-c2nn[nH]n2)cc1 [DuP 753, reference compound] ?
Output: < 4.00

====

target.system: AT4 receptor (Bos taurus)
method.description: 125I-AIV binding and competition, bovine adrenal cortical membranes
experimental.endpoint: Kd

Input: What Kd value was documented for this substance, `DYIHPF` ?
Output: > 1000 nM

====

target.system: AT4 receptor (Bos taurus, UniProt F1N1Q8)
Sequence (F1N1Q8 1-1022): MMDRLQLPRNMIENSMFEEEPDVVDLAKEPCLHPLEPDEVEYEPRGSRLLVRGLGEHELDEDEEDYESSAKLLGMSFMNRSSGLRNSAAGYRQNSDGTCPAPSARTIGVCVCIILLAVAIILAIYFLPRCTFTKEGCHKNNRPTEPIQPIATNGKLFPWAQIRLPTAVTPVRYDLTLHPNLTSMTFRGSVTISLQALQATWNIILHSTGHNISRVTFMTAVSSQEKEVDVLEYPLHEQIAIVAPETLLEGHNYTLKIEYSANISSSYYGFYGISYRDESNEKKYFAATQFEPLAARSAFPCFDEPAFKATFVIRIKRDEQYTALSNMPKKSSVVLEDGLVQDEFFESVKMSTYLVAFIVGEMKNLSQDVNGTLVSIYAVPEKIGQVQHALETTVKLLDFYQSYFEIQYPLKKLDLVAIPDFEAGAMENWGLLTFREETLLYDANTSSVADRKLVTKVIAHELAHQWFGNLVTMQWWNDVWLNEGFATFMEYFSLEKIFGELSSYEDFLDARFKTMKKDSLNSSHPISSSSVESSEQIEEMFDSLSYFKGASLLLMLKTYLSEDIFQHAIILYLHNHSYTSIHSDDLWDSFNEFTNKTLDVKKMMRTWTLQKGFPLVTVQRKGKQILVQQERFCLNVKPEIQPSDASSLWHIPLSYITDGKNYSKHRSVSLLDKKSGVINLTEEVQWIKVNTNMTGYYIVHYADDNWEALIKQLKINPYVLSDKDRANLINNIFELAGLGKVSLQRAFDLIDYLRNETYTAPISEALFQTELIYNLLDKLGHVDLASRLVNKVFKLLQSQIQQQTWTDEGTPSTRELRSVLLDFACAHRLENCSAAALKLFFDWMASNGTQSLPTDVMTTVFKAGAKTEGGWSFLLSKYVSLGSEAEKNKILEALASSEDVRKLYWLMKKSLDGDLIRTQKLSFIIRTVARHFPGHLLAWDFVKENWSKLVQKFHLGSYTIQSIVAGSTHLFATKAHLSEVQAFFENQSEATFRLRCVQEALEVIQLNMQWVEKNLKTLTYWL
method.description: 125I-AIV binding and competition, coronary venular endothelial cell (CVEC) membranes
Design: species or system bovine
conditions.used: unit inferred
experimental.endpoint: Ki

Input: What Ki value was documented for this compound, CCCCc1nc(Cl)c(CO)n1Cc1ccc(-c2ccccc2-c2nn[nH]n2)cc1 [DuP 753, reference compound] ?
Output: > 100 µM
